molecules and their reported viability, T/C
- System: 953936-095-R-J2-PDC spheroids with HUVEC/MSC, viability
- EXPERIMENT_SUMMARY: Anticancer human tumor 953936-095-R-J2-PDC patient-derived cervical squamous cell carcinoma cell line growth inhibition [PI3K]
- PROTOCOL_CONDITIONS: second compound 0.1 µM; first compound 0.1 µM; hits give low values
Answer in %, number only, no unit symbol.

>  <MOLECULE>
Cn1ncc(Cl)c1-c1cc(C(=O)NC(CN)Cc2cccc(F)c2)sc1Cl (stereo not given) + COc1c(OCCCN2CCOCC2)ccc2c3n(c(=NC(=O)c4cnc(N)nc4)nc12)CCN3

>  <viability, T/C / %>
17.8

$$$$
>  <MOLECULE>
CC1(C)CCC(Nc2ncc(C(F)(F)F)c(-c3c[nH]c4c(P(C)(C)=O)c(C#N)ccc34)n2)CN1 (stereo not given) + COc1c(OCCCN2CCOCC2)ccc2c3n(c(=NC(=O)c4cnc(N)nc4)nc12)CCN3

>  <viability, T/C / %>
16.5

$$$$
>  <MOLECULE>
C=CC(=O)N1CCN(c2nc(=O)n(-c3c(C)ccnc3C(C)C)c3nc(-c4c(O)cccc4F)c(F)cc23)C(C)C1 (stereo not given) + COc1c(OCCCN2CCOCC2)ccc2c3n(c(=NC(=O)c4cnc(N)nc4)nc12)CCN3

>  <viability, T/C / %>
18.4

$$$$
>  <MOLECULE>
CCN1CCN(Cc2ccc(Nc3ncc(F)c(-c4cc(F)c5nc(C)n(C(C)C)c5c4)n3)nc2)CC1 + Cc1nc(NC(=O)N2CCCC2C(N)=O)sc1-c1ccnc(C(C)(C)C(F)(F)F)c1

>  <viability, T/C / %>
78.3

$$$$

In: Using the record for Cn1nccc1Nc1nccc(-c2ccn(C(CO)c3ccc(Cl)c(F)c3)c(=O)c2)n1 (stereo not given) + CC(Nc1ccc2c(c1)OCCn1cc(N3C(=O)OCC3C(F)F)nc1-2)C(N)=O , report its viability, T/C.
Out: 52.7

====

- Test system: 953936-095-R-J2-PDC spheroids with HUVEC/MSC, viability
- EXPERIMENT_SUMMARY: Anticancer human tumor 953936-095-R-J2-PDC cell line growth inhibition [PI3K]; active = viability on the fitted dose curve at most 10% of control; inactive = the rest;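 note: spheroids exposed to compounds for seven days before read-out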
- PROTOCOL_CONDITIONS: second compound 0.316 µM; first compound 0.00949 µM
The reply should be one of these categories: active, inactive

Check out these entries, answers already filled in.
>  <COMPOUND>
Cn1cnc2c(F)c(Nc3ccc(Br)cc3Cl)c(C(=O)NOCCO)cc21 + COc1c(OCCCN2CCOCC2)ccc2c3n(c(=NC(=O)c4cnc(N)nc4)nc12)CCN3

>  <TARGET_UNDER_TEST>
953936-095-R-J2-PDC spheroids with HUVEC/MSC, viability

>  <CLASS>
active

$$$$
>  <COMPOUND>
Cn1cnc2c(F)c(Nc3ccc(Br)cc3Cl)c(C(=O)NOCCO)cc21 + CC(Nc1ccc2c(c1)OCCn1cc(N3C(=O)OCC3C(F)F)nc1-2)C(N)=O

>  <TARGET_UNDER_TEST>
953936-095-R-J2-PDC spheroids with HUVEC/MSC, viability

>  <CLASS>
inactive

$$$$

In: Write down the call the test reported for this compound. Item: Cn1cnc2c(F)c(Nc3ccc(Br)cc3Cl)c(C(=O)NOCCO)cc21 + Cc1nc(NC(=O)N2CCCC2C(N)=O)sc1-c1ccnc(C(C)(C)C(F)(F)F)c1
Out: inactive

In: For Cn1cnc2c(F)c(Nc3ccc(Br)cc3Cl)c(C(=O)NOCCO)cc21 + CC(Nc1ncnc2nc[nH]c12)c1cc2cccc(Cl)c2c(=O)n1-c1ccccc1 , what call appears in the results of this test?
Out: inactive
